Test system: Fibroblast
Assay: Multiplex assay against human fibroblast
Type: toxicity, cell-based
Conditions: 48 h, 10 µM, compound concentration 10 uM, replicate 2
The label is condition met for Population Membrane Permeable-Phenotype (%) below 10% and condition not met for Population Membrane Permeable-Phenotype (%) equal to or exceeding 10%.

1. C#Cc1cccc(Nc2ncnc3cc(OCCOC)c(OCCOC)cc23)c1    condition not met
2. CC1=C(C(=O)Nc2cc3cn[nH]c3cc2F)C(c2ccc(C(F)(F)F)cc2)CC(=O)N1 (stereo not drawn)    condition met
3. CCOC(=O)Nc1cc(-c2ccc(C)c(NS(C)(=O)=O)c2)nn2c(C)nnc12    condition met

Report whether reported Population Membrane Permeable-Phenotype (%) is lower than 10% (strictly) for Cc1c[nH]c2nccc(Oc3c(F)cc(Nc4cc(Cl)nc(N)n4)cc3F)c12
condition met

Report whether reported Population Membrane Permeable-Phenotype (%) is lower than 10% (strictly) for C[C@]12CC[C@@H]3c4ccc(O)cc4CC[C@H]3[C@@H]1CC[C@@H]2O
condition not met

Report whether reported Population Membrane Permeable-Phenotype (%) is lower than 10% (strictly) for O=C(c1cc2c(cc1F)OC(c1ccc(F)cc1)(c1ccc(Cl)cc1Cl)O2)N1CCOCC1 (stereo not drawn)
condition met

Report whether reported Population Membrane Permeable-Phenotype (%) is lower than 10% (strictly) for CC(C)OC(=O)N1CCC(Oc2ncnc3c2cnn3-c2ccc(S(C)(=O)=O)cc2F)CC1
condition not met

Report whether reported Population Membrane Permeable-Phenotype (%) is lower than 10% (strictly) for CC(C)(C)NC[C@H](O)COc1nsnc1N1CCOCC1
condition met
